Tested on: RXF 393
Assay Protocol: NCI tumour cell line growth inhibition, 48 h
The source made the active and inactive calls. Cut-off read from the data, not from the text of the source: active = GI50 up to about 1.1 µM and inactive = higher.
Classes used: true (1) (active), false (0) (inactive)

# Compound, Label
data = [
    ("CCCCNc1nc(N)nc(Nc2ccc(Br)cc2)c1N=O", "false (0)"),
    ("COc1cc(CO)cc2c1[nH]c1ccccc12 [KOENOLINE]", "false (0)"),
    ("CCOC(=O)/C(ON)=C(/CC/C(C(=O)OC)=C(\\ON)C(=O)OCC)C(=O)OC", "false (0)"),
    ("O=c1[nH]/c(=C/c2ccc(OCc3ccccc3)cn2)c(=O)[nH]/c1=C/c1cccnc1", "true (1)"),
    ("Oc1cc(Br)cc2cccnc12", "false (0)"),
    ("C=C(C)C1Cc2c(cc(O)c3c(=O)c4ccccc4n(C)c23)O1 (stereo unspecified)", "false (0)"),
    ("O=c1c2cc(I)ccc2nc(-c2cccs2)n1O", "false (0)"),
    ("CCc1ncc(C(C)(O)c2ccccc2)n1Cc1ccccc1 (stereo unspecified)", "false (0)"),
    ("COc1cc2c(C)cc(O)cc2c2cc(O)c(C)cc12", "false (0)"),
    ("Oc1ccccc1C1=NOC(c2ccc(C(F)(F)F)cc2)C1 (stereo unspecified)", "false (0)"),
    ("O=C1C(Cl)C2(CC(/C=C/c3cccs3)=NN2c2cccc(S(=O)(=O)O)c2)N1c1nc2ccccc2s1 (stereo unspecified)", "false (0)"),
]

* * *

Tested on: KM-20L2
Assay Protocol: NCI tumour cell line growth inhibition, 48 h
Activity calls are given as the source filed them. Rule as the data show it: active = GI50 up to about 1.1 µM and inactive = higher.
Labels: active, inactive

# Molecule, Target Of Assay, Label
rows = [
    ("COC(=O)N/N=C(/CCC(=O)Nc1ccc(C)c(C)c1)CC(=O)C(C)(C)C", "KM-20L2", "inactive"),
    ("NCC(Cl)C(O)c1c[nH]c(N)n1 (stereo unspecified)", "KM-20L2", "active"),
    ("C=CCNC(=O)N(CCC)CCCC(NC(C)=O)C(=O)NCc1ccccc1 (stereo unspecified)", "KM-20L2", "inactive"),
    ("N#CC(C(=O)Nc1ccccc1)C1=C(Cl)C(=O)c2ccccc2C1=O (stereo unspecified)", "KM-20L2", "inactive"),
    ("CCOC(=O)c1cn(Cc2ccccc2)c(=O)n1Cc1ccccc1", "KM-20L2", "inactive"),
    ("COc1cc2cnc3c4cc(OC(C)C)c(OC)cc4ccc3c2cc1OC", "KM-20L2", "inactive"),
    ("COC1(OC)CC2C(=O)N(Cc3ccccc3)C1C(S(=O)(=O)c1ccccc1)C2S(=O)(=O)c1ccccc1 (stereo unspecified)", "KM-20L2", "inactive"),
    ("NS(=O)(=O)c1ccc(NC2=CC(=O)C(=O)c3ccccc32)cc1", "KM-20L2", "inactive"),
    ("CC(C)(O)[C@@H]1CC[C@@]2(C)CCCC(O)C2(O)C1 (stereo partly specified)", "KM-20L2", "inactive"),
    ("CC(CCCOC(c1ccccc1)(c1ccccc1)c1ccccc1)OC(=O)Nc1ccccc1 (stereo unspecified)", "KM-20L2", "inactive"),
    ("Nc1ccc(S(=O)(=O)Nc2cnc3ccccc3n2)cc1", "KM-20L2", "inactive"),
    ("O=[N+]([O-])c1ccc(/C=N/C23CC4CC(CC(C4)C2)C3)cc1", "KM-20L2", "inactive"),
    ("NC(=O)OCC(COc1ccc(Cl)cc1)OC(=O)c1cc([N+](=O)[O-])cc([N+](=O)[O-])c1 (stereo unspecified)", "KM-20L2", "inactive"),
    ("Cc1c(/C=C2\\CC/C(=C\\c3[nH]c(C(=O)OC(C)(C)C)c(C)c3C)C2=O)[nH]c(C(=O)OC(C)(C)C)c1C", "KM-20L2", "inactive"),
    ("CCN(CC)CCO[Si](OCCN(CC)CC)(OCCN(CC)CC)OCCN(CC)CC", "KM-20L2", "inactive"),
    ("COC1=CC(=O)[C@@]2(C)C(C)[C@H](c3ccccc3)[C@H]2C1=O (stereo partly specified)", "KM-20L2", "inactive"),
    ("CCOC(=O)C[C@@]12CCCNC1(C)CCc1ccccc12 (stereo partly specified)", "KM-20L2", "inactive"),
    ("CN(C)CC1CCCC/C1=N\\OC(=O)c1ccccc1 (stereo unspecified)", "KM-20L2", "inactive"),
    ("C/C(CCn1[nH]c(=O)ccc1=O)=N\\NC(=O)C(N)=O", "KM-20L2", "inactive"),
    ("Nc1nc(Cl)cc(NCCCCCCCCNc2cc(Cl)nc(N)n2)n1", "KM-20L2", "inactive"),
    ("COc1cc(C=O)c(-c2cc3c(cc2C=O)OCO3)c(OC)c1OC", "KM-20L2", "inactive"),
]

* * *

// values below are reported GI50
Test system: MDA-MB-231
Assay Protocol: NCI tumour cell line growth inhibition, 48 h
The source made the active and inactive calls. Rule as the data show it: active = GI50 up to about 1.1 µM and inactive = higher.

# Molecule, GI50
data = [
    ("COc1cc(C(=O)Nc2nnc(S(N)(=O)=O)s2)cc(OC)c1OC", "> 100 µM (inactive)"),
    ("COc1ccc(-c2cs/c(=N\\c3ccccc3)n2CCCN(C)C)cc1", "44.2 µM (inactive)"),
    ("CNC(Cc1ccccc1)c1cccc(OC)c1O (stereo unspecified)", "> 100 µM (inactive)"),
    ("C=C1CC/C=C(\\C)C(=O)C[C@@H]2[C@@H]1CC2(C)C [BUDDLEDIN C]", "7.53 µM (inactive)"),
    ("Sc1ncc(-c2cncc(-c3cnc(S)nc3)n2)cn1", "> 100 µM (inactive)"),
    ("CC#CCCCC1(C)CCCNC1=S (stereo unspecified)", "> 10 µM (inactive)"),
    ("CC[C@H]1OC([C@H](O)C/C=C\\C#C[Si](C)(C)C)C/C=C\\C[C@H]1O[Si](C)(C)C(C)(C)C (stereo partly specified)", "> 100 µM (inactive)"),
    ("ON(Cc1ccccc1)C(=S)c1ccccc1", "21.4 µM (inactive)"),
    ("CN1CC2=C(N=C(S)NC2c2ccccc2Cl)/C(=C/c2ccccc2Cl)C1 (stereo unspecified)", "26.2 µM (inactive)"),
    ("Cn1c2ccccc2c(=O)c2c(O)cc3c(c21)C=CC1(CCCCC1)O3", "> 10 µM (inactive)"),
    ("O=C(SCc1cccc2ccccc12)c1ccc(Cl)cc1", "> 100 µM (inactive)"),
    ("N/N=C(\\C(=O)Nc1ccc([N+](=O)[O-])cc1)C(C1=Nc2cc([N+](=O)[O-])ccc2NC1)[N+](=O)[O-] (stereo unspecified)", "> 100 µM (inactive)"),
    ("NCC1Nc2ccccc2[C@@H](O)C1O (stereo partly specified)", "> 100 µM (inactive)"),
    ("O=S(=O)(N1CCCCN(S(=O)(=O)C(F)(F)F)CCCN(S(=O)(=O)C(F)(F)F)CCCCN(S(=O)(=O)C(F)(F)F)CCCN(S(=O)(=O)C(F)(F)F)CCCCN(S(=O)(=O)C(F)(F)F)CCCN(S(=O)(=O)C(F)(F)F)CCCCN(S(=O)(=O)C(F)(F)F)CCC1)C(F)(F)F", "> 31.6 µM (inactive)"),
    ("C[C@]12[C@@H]3CC[C@H]1[C@@H](O)C(=O)N2CC3", "> 100 µM (inactive)"),
    ("O=Cc1coc2ccccc2c1=O", "18.5 µM (inactive)"),
    ("O=S(=O)(O)CCS [MESNA]", "> 100 µM (inactive)"),
    ("O=C1/C(=C/c2cccs2)N=C(c2ccccc2)N1c1nc2ccccc2s1", "> 100 µM (inactive)"),
    ("Cc1nn(C(=O)c2ccncc2)c2c1C(c1cccc([N+](=O)[O-])c1)SC(=N)N2 (stereo unspecified)", "> 10 µM (inactive)"),
    ("COc1ccccc1NC1=NCC(C)S1 (stereo unspecified)", "> 100 µM (inactive)"),
    ("C/C(=N\\NC(=O)c1ccc(Cl)cc1)c1nc2cccnc2[nH]1", "36.8 µM (inactive)"),
]

* * *

Tested on: SF-268
Assay Protocol: NCI tumour cell line growth inhibition, 48 h
Active and inactive are the calls of the source. Rule as the data show it: active = GI50 up to about 1.1 µM and inactive = higher.
Possible outcomes: YES for active, NO for inactive

# Molecule, Label
rows = [
    ("COc1ccc(C2CC(c3ccccc3)=Nc3c(-c4ccccc4)nnn32)cc1 (stereo not drawn)", "NO"),
    ("N#Cc1nsnc1-c1nc(-c2nsnc2C#N)nc(-c2nsnc2C#N)n1", "NO"),
    ("COC1=CC(=O)[C@@]2(C)C(C)[C@H](c3ccccc3)[C@H]2C1=O (stereo partly drawn)", "NO"),
    ("O=c1cc(O)c1=O", "NO"),
    ("CC(C)CCNc1ncnc2[nH]ncc12", "NO"),
    ("O=c1c2cc(I)ccc2nc(-c2cccs2)n1O", "NO"),
    ("CCOC(=O)C1C(=O)CC1(C)C (stereo not drawn)", "NO"),
    ("COc1ccc2c(c1)C(=O)C1CC(=O)CCC21 (stereo not drawn)", "NO"),
    ("O=C(C(Cl)Cl)N(O)c1ccccc1OCc1ccccc1", "NO"),
    ("Cc1n[nH]c(=O)n1/N=C/c1ccncc1", "NO"),
    ("C#CCC(O)c1ccc(OC)c(OCc2ccccc2)c1 (stereo not drawn)", "NO"),
    ("Cc1cc(C)nc(NS(=O)(=O)c2ccc(NC(=O)c3cccc4c(Nc5ccc(S(=O)(=O)Nc6cc(C)on6)cc5)c5ccccc5nc34)cc2)n1", "NO"),
    ("CCCCNC(=S)Nc1nc(C(=O)NNC(=S)NCc2ccccc2)cs1", "NO"),
    ("COC(OC)c1cccc2c1C(=O)CCC1(CC2)OCCCCO1", "NO"),
    ("O=c1c2cccnc2[s+]([O-])n1Cc1ccccc1 (stereo not drawn)", "NO"),
    ("Cc1ccc(O)c(C2=CC3=NNC(=O)C3C(c3cccc(Cl)c3)C2)c1 (stereo not drawn)", "NO"),
    ("CC1CC(c2ccccc2)=Nc2ccccc2S1 (stereo not drawn)", "NO"),
    ("NC1=C(O)c2cccc3cccc(c23)C1=O", "NO"),
    ("COc1cc(Nc2nc3ccccc3nc2C(=O)O)cc(OC)c1OC", "NO"),
    ("Clc1cc2nnn(C3CCCCO3)c2cc1Cl (stereo not drawn)", "NO"),
    ("O=c1[nH]/c(=C/c2ccc(OCc3ccccc3)cn2)c(=O)[nH]/c1=C/c1cccnc1", "YES"),
    ("CCCCNc1nc(N)nc(Nc2ccc(Br)cc2)c1N=O", "NO"),
    ("COc1cc(C(=O)Nc2nnc(S(N)(=O)=O)s2)cc(OC)c1OC", "NO"),
    ("CC1(C)CC[C@]2(C(=O)O)CC[C@]3(C)C(=CC[C@@H]4[C@@]5(C)CC[C@H](OC6OC(C(=O)O)C(O)C(O)C6O)C(C)(C)[C@@H]5CC[C@]43C)[C@@H]2C1 (stereo partly drawn)", "NO"),
    ("CC(=O)/C(=N\\O)C(=O)Nc1ccc(Cl)cc1Cl", "NO"),
    ("Cc1ccc(C(=O)N/N=C(\\N=N\\c2ccccc2Cl)c2ccc(N(C)C)cc2)cc1", "NO"),
    ("CCC(=O)C(C)C1=Nc2nnc(CCCCCCCc3nnc4n3C(=O)C(C(C)C(=O)CC)=N4)n2C1=O (stereo not drawn)", "NO"),
    ("O=C(c1ccsc1)c1cc2c(s1)C(=O)c1ccsc1C2=O", "YES"),
    ("COc1ccc2nc(N/N=C/c3ccc(C)s3)cc(C)c2c1", "NO"),
    ("C=C(CCC/C(C)=C/C=C/[C@@H](C)CCCc1ccoc1)C[C@@H]1OC(=O)[C@H](C)[C@@H]1O", "NO"),
    ("CC(C)=CCC[C@@H](C)C1=C(O)C(=O)C(C)=C(Nc2ccccc2)C1=O", "NO"),
    ("C=C1CC(CNc2cc(Cl)nc(N)n2)C1", "NO"),
    ("CC(=O)O[C@@H]1C[C@@]23C[C@@]24CC[C@H](OC2OCC(O)C(O)C2O)C(C)(C)[C@@H]4CC=C3[C@]2(C)C[C@@H]3OC4(C[C@@H](C)[C@@H]3[C@@]12C)OC(O)[C@@]1(C)O[C@@H]41 (stereo partly drawn)", "NO"),
    ("CCOC(=O)c1cn(Cc2ccccc2)c(=O)n1Cc1ccccc1", "NO"),
    ("O=C(O)CNC(=O)C1NC(C(F)(F)F)(C(F)(F)F)OC1(C(F)(F)F)C(F)(F)F (stereo not drawn)", "NO"),
    ("C#CCN(Cc1ccc2nc(-c3ccccc3)c(Cl)nc2c1)c1ccc(F)cc1", "NO"),
    ("N=C(N)NC(=N)Nc1c(F)c(F)c(F)c(F)c1F", "NO"),
    ("COC(=O)N[C@H](C(=O)NC(OCc1ccccc1)C1COC(C)(C)O1)C(C)O[Si](C)(C)C(C)(C)C (stereo partly drawn)", "NO"),
    ("CCNC(=O)COc1ccc(Cl)c(C)c1", "NO"),
    ("CC(=O)NNc1nc(C)c(C(=O)NNC(=O)C(=O)Nc2ccc(Cl)cc2Cl)s1", "NO"),
    ("COc1ccc2[nH]c3c(c2c1)CC(=O)N1CCC[C@H](C1)CC31OCCCO1", "NO"),
    ("COc1ccc2c(c1)OC(c1ccccc1O)CC2=O (stereo not drawn)", "NO"),
    ("CCC1(C(=O)OC)CCc2c(OC)ccc(OC)c2C1=O (stereo not drawn)", "NO"),
]
